# subject of test: KRAS^G12C (Homo sapiens, UniProt P01116, G12C)
# assay remarks: LC-MS occupancy measurements (KI and kinact determination)
# Assay type: binding
# experimental setup: 20 μM inhibitor, 5 μM KRASG12C, duplicated experiments
Catalogue of molecules with associated kobs
Give just the number in s⁻¹; leave the unit off.

Examples with their reported kobs follow.
| molecule | result unit | kobs |
| --- | --- | --- |
| CN1CCCC1COc1nc(N2CCN(C(=O)C3CN3)CC2)c2cc(Cl)c(-c3c(O)cccc3F)cc2n1 (stereo not shown) | s⁻¹ | 0.00029 |
| O=C(C1CN1)N1CCN(c2ncnc3cc(-c4c(O)cccc4F)c(Cl)cc23)CC1 (stereo not shown) | s⁻¹ | 0.00004 |
| O=C(N1CCN(c2ncnc3cc(-c4c(O)cccc4F)c(Cl)cc23)CC1)n1ccnc1 | s⁻¹ | 0.00014 |

// next entry
Name the reported kobs value associated with the molecule CN1CCCC1COc1nc(N2CCN(C(=O)n3ccnc3)CC2)c2cc(Cl)c(-c3c(O)cccc3F)cc2n1 (stereo not shown)
0.00005

###

# subject of test: KRAS^G12C (Homo sapiens, UniProt P01116, G12C)
# assay remarks: LC-MS occupancy measurements (KI and kinact determination)
# Type: binding
# experimental setup: free energy barrier calculated from kinact
reported metric: experimental ΔG^# (KRAS^G12C)
Quote the value and follow it with the unit of measurement.

Examples with their reported experimental ΔG^# (KRAS^G12C) follow.
| molecule | recorded result |
| --- | --- |
| CN1CCCC1COc1nc(N2CCN(C(=O)C3CN3)CC2)c2cc(Cl)c(-c3c(O)cccc3F)cc2n1 (stereo not shown) | 88.7 ± 0.42 kJ/mol |
| O=C(N1CCN(c2ncnc3cc(-c4c(O)cccc4F)c(Cl)cc23)CC1)n1ccnc1 | 92 ± 0.84 kJ/mol |
| O=C(C1CN1)N1CCN(c2ncnc3cc(-c4c(O)cccc4F)c(Cl)cc23)CC1 (stereo not shown) | 95.8 ± 0 kJ/mol |

Name the reported experimental ΔG^# (KRAS^G12C) value associated with the molecule CN1CCCC1COc1nc(N2CCN(C(=O)n3ccnc3)CC2)c2cc(Cl)c(-c3c(O)cccc3F)cc2n1 (stereo not shown)
95 ± 0 kJ/mol

###

# subject of test: KRAS^G12C (Homo sapiens, UniProt P01116, G12C)
# assay remarks: LC-MS occupancy measurements (KI and kinact determination)
# Format: binding
# experimental setup: 160 μM inhibitor, 5 μM KRASG12C, duplicated experiments
Catalogue of compounds with associated kobs
Give just the number in s⁻¹; leave the unit off.

Examples with their reported kobs follow.
| compound | recorded result |
| --- | --- |
| O=C(N1CCN(c2ncnc3cc(-c4c(O)cccc4F)c(Cl)cc23)CC1)n1ccnc1 | 0.00033 |
| CN1CCCC1COc1nc(N2CCN(C(=O)n3ccnc3)CC2)c2cc(Cl)c(-c3c(O)cccc3F)cc2n1 (stereo not shown) | 0.00010 |
| O=C(C1CN1)N1CCN(c2ncnc3cc(-c4c(O)cccc4F)c(Cl)cc23)CC1 (stereo not shown) | 0.00008 |

Form field: kobs recorded for CN1CCCC1COc1nc(N2CCN(C(=O)C3CN3)CC2)c2cc(Cl)c(-c3c(O)cccc3F)cc2n1 (stereo not shown) with KRAS^G12C (Homo sapiens, UniProt P01116, G12C) (enter value)
0.00104
